Test system: SEM cells
ASSAY PROCEDURE: cell viability relative to DMSO control; higher = less cytotoxic
RECORDED CONDITIONS: RPMI 5 mM glucose + 10% dialyzed FBS; 48 h; 0.0211 µM
Recorded cell viability for the following compounds
# unit: % | format: bare number

Observe how each entry below is paired with its result.
COMPOUND	cell viability [%]
CO[C@@H]1[C@@H](OC(N)=O)[C@@H](O)[C@H](OC2=CC=C3\C(=C(NC(=O)C4=CC=C([O-])C(=C4)CC=C(C)C)/C(=O)OC3=C2C)O)OC1(C)C	114
CCCCOc1ccc(CC(=O)NO)cc1	116
NC/1=N/C(=O)N(C[C@@H](CO)OC[P](O)(O)=O)/C=C1	122
C[C@H]1C[C@H]2[C@@H]3CCC4=CC(=O)C=C[C@]4(C)[C@H]3C(=O)C[C@]2(C)[C@@]1(O)C(=O)CO	91.1
Oc1cc2c(cc1O)C1c3ccc(O)c(O)c3OCC1(O)C2 (stereo unspecified)	91.7

In: Name the recorded cell viability for CO[C@H]1/C=C/O[C@@]2(C)Oc3c(C)c(O)c4c(O)c(c(/C=N/N5CCN(C)CC5)c(O)c4c3C2=O)NC(=O)/C(C)=C\C=C\[C@H](C)[C@H](O)[C@@H](C)[C@@H](O)[C@@H](C)[C@H](OC(C)=O)[C@@H]1C .
Out: 103
